tested_target: human OX1 receptor (Homo sapiens, UniProt O43613)
Construct: expressed in transfected cells; host or cells: CHO cells
Sequence (O43613 whole entry): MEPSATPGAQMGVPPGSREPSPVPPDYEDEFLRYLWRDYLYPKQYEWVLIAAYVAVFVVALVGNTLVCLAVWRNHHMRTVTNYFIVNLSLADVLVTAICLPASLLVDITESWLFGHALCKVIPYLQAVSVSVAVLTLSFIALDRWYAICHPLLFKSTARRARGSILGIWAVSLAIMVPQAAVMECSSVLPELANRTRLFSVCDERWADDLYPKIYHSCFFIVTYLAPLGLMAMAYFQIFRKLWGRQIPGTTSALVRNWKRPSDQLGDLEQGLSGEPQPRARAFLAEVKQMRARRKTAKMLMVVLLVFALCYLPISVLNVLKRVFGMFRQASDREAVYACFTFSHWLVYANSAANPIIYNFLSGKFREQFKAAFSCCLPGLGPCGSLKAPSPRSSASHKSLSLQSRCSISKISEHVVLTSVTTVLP
procedure_summary: Measurement of orexin receptor antagonistic activity (calcium fluorescence, FLIPRtetra)
Assay type: cell-based
test_context: CHO, read-out: Human Orexin1 receptor inhibition (at 10 μM)
Experimental: Measurement of Orexin Receptor Antagonistic Activity CHO cells forcibly expressing human OX1 receptor or human OX2 receptor were seeded in each well of 384 well black transparent bottom plate (BD Falcon) at 7,500 cells/well, and cultured for one day in a 5% CO2 incubator at 37° C. […] The plate was stood for 30 min in a 5% CO2 incubator at 37° C., and further stood at room temperature for 30 min. […]
Recorded inhibition at 10 µM, one value per entry.
Numbers only here, please. The scale is %.

compound	reported_endpoint	obs_value
Cc1cc(C)nc(N2CCN(C(=O)c3cccc4c3OC(C)(C)C4)CCO2)n1 [Example 75]	inhibition at 10 µM	10

Task: Any idea what its inhibition at 10 µM is? The compound is Cc1ccc(-n2nccn2)c(C(=O)N2CCN(c3cc(C(F)F)ccn3)OC[C@H]2C)c1 [Example 139]
Output: 54

Task: Any idea what its inhibition at 10 µM is? The compound is Cc1ccc(-n2nccn2)c(C(=O)N2CCN(c3ccnc(C(F)(F)F)c3)OC[C@H]2C)c1 [Example 146]
Output: 66

Task: Any idea what its inhibition at 10 µM is? The compound is Cc1cc(C)nc(N2CCN(C(=O)c3cccc4nc(C)oc34)CCO2)n1 [Example 70]
Output: -6

Task: Any idea what its inhibition at 10 µM is? The compound is Cc1cc(C)nc(N2CCN(C(=O)c3ccccc3C)CCO2)n1 [Example 57]
Output: 10

Task: Any idea what its inhibition at 10 µM is? The compound is Cc1cc(C)nc(N2CCN(C(=O)c3ccc(Cl)cc3Cl)CCO2)n1 [Example 59]
Output: 1

Task: Any idea what its inhibition at 10 µM is? The compound is Cc1ccc(-n2nccn2)c(C(=O)N2CCN(c3cccc(C#N)c3)OC[C@H]2C)c1 [Example 140]
Output: 21

Task: Any idea what its inhibition at 10 µM is? The compound is Cc1ccc(-n2nccn2)c(C(=O)N2CCN(c3ccnc(C)c3)OC[C@H]2C)c1 [Example 144]
Output: 14

Task: Any idea what its inhibition at 10 µM is? The compound is Cc1ccc(-n2nccn2)c(C(=O)N2CCN(c3cncc(Cl)c3)OC[C@H]2C)c1 [Example 133]
Output: 11

Task: Any idea what its inhibition at 10 µM is? The compound is Cc1cc(C)nc(N2CCN(C(=O)c3ccccc3-n3cccc3)CCO2)n1 [Example 80]
Output: 14

Task: Any idea what its inhibition at 10 µM is? The compound is Cc1cncc(N2CCN(C(=O)c3cc(C)ccc3-n3nccn3)[C@H](C)CO2)c1 [Example 131]
Output: -7

Task: Any idea what its inhibition at 10 µM is? The compound is Cc1cc(C)nc(N2CCN(C(=O)c3cccc4ncc(C)nc34)CCO2)n1 [Example 68]
Output: 28

Task: Any idea what its inhibition at 10 µM is? The compound is Cc1ccc(-n2nccn2)c(C(=O)N2CCN(c3ncccc3C)OC[C@H]2C)c1 [Example 145]
Output: 25

Task: Any idea what its inhibition at 10 µM is? The compound is COc1ccnc(N2CCN(C(=O)c3cc(C)ccc3-n3nccn3)[C@H](C)CO2)c1 [Example 137]
Output: 93

Task: Any idea what its inhibition at 10 µM is? The compound is COc1cccc(C(=O)N2CCON(c3nc(C)cc(C)n3)CC2)c1Cl [Example 60]
Output: -1

Task: Any idea what its inhibition at 10 µM is? The compound is Cc1ccc(-n2nccn2)c(C(=O)N2CCN(c3ccc(F)cc3)OC[C@H]2C)c1 [Example 135]
Output: 15

Task: Any idea what its inhibition at 10 µM is? The compound is Cc1cc(C)nc(N2CCN(C(=O)c3cccc4nccnc34)CCO2)n1 [Example 67]
Output: 5
